test: protein stability index of a GFP-peptide fusion (GPS, HEK-293T) (PSI 1-6); higher = more stable; details: treatment: MLN4924 1 uM, 8 h; c terminus: a fixed tail appended;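 further: 24-mer peptide tiles fused after GFP, lentivirally expressed, FACS-sorted into six equal bins by GFP/DsRed ratio, decoded by Illumina sequencing, PSI is the read-weighted mean bin number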
So I've got a bunch of sequences here, and I need their protein stability index values.

Here is how some sequences turned out for protein stability index.
                        sequence_text           endpoint_label  observed_measurement
0    YSPEALASIQNHVRKREAPAPEAE [EFHC1]  protein stability index                  5.06
1    HGEEQRITIEPGTSYRLQGLKPNS [PTPRD]  protein stability index                  4.67
2     LKYVRGLLQTEPQNNQAKELERLI [FIS1]  protein stability index                  3.02
3    DASILTEMPTQPGKPLIPPMNRRN [NETO1]  protein stability index                  4.64
4  QIKTLLALSCHEQEMVVSSLVIGA [SLC2A12]  protein stability index                   3.1
5   YNMAPSALDSADLPPPSALKKGSK [NFE2L1]  protein stability index                  5.13
6  EPGRLYLDLILAILALELICSLIC [TMEM192]  protein stability index                  2.21
7  DPLTYKSRLMVVVKMDSSIQPGPF [RHOBTB2]  protein stability index                  2.08

Give protein stability index for each listed item.
1. FLIGAYAVIYLKKTPEEAYRALLS [CDC14A]
2. KESSPSGSKSQRYSGAYGASVSDE [CHCHD3]
3. PKLREETAHMLGVRELRIAFREFD [CABP4]
4. DYRQEQPETFWIQRAPQLPTWWPL [SPAG8]
5. PREQAARFCSEIKSSKYGEGHQAW [SEPHS2]
6. SPMLIVFHGKYSTINPLWHIRHLG [GLT8D2]

Response:
2.7
4.99
3.17
2.57
3.52
2.47
